Listed here: items and their measured pKd.
protocol-text: Lipid II binding by Surface Plasmon Resonance
experimental-setup: SPR, immobilized 3-Lipid II, 25°C
pKd: −log10 of the molar value.

>  <entry-smiles>
Brc1ccc(-c2cc(/C=C/c3cc4c5c(c3)CCCN5CCC4)[o+]c(-c3ccc(Br)cc3)c2)cc1.F[B-](F)(F)F

>  <pKd>
4.49

$$$$
>  <entry-smiles>
Cn1cc(/C=C/c2cc(-c3ccc(C(C)(C)C)cc3)cc(-c3ccc(C(C)(C)C)cc3)[o+]2)c2ccccc21.F[B-](F)(F)F

>  <pKd>
4.22

$$$$
>  <entry-smiles>
C(=C\c1cc(-c2ccccc2)cc(-c2ccccc2)[o+]1)/c1cc2c3c(c1)CCCN3CCC2.F[B-](F)(F)F

>  <pKd>
4.77

$$$$
>  <entry-smiles>
CN(C)c1ccc(/C=C/c2cc(-c3ccccc3)cc(-c3ccccc3)[o+]2)cc1.F[B-](F)(F)F

>  <pKd>
4.41

$$$$
>  <entry-smiles>
Cc1ccc(-c2cc(/C=C/c3cn(C)c4ccccc34)[o+]c(-c3ccc(C)cc3)c2)cc1.F[B-](F)(F)F

>  <pKd>
5.41

$$$$
>  <entry-smiles>
Cc1ccc(-c2cc(/C=C/c3cc4c5c(c3)CCCN5CCC4)[o+]c(-c3ccc(C)cc3)c2)cc1.F[B-](F)(F)F

>  <pKd>
5.66

$$$$
>  <entry-smiles>
CCc1ccc(-c2cc(/C=C/c3cn(C)c4ccccc34)[o+]c(-c3ccc(CC)cc3)c2)cc1.F[B-](F)(F)F

>  <pKd>
5.80

$$$$

###

protocol-text: Liver microsome stability
Format: in vitro ADME
experimental-setup: human liver microsomes, pH 7.4, 1h 37 °C, read-out: Liver microsome stability Half-life

>  <entry-smiles>
CN(C)c1ccc(/C=C/c2cc(-c3ccc(Br)cc3)cc(-c3ccc(Br)cc3)[o+]2)cc1

>  <half-life at 10 uM>
> 1 h

$$$$

###

Test system: E. faecium EF1509 (VRE)
protocol-text: Antibacterial activity (MIC, broth dilution)
Format: cell-based
experimental-setup: CLSI, in µg/mL
Values of Antibacterial activity (MIC) E. faecium EF1509 (VRE) greater than or equal to 4 map to yes (1); values below map to no (0).

>  <compound>
Cc1ccc(-c2cc(/C=C/c3cn(C)c4ccccc34)[o+]c(-c3ccc(C)c(C)c3)c2)cc1C.F[B-](F)(F)F [6jc66-4]

>  <answer-label>
no (0)

$$$$
>  <compound>
CCc1ccc(-c2cc(/C=C/c3c[nH]c4ccccc34)[o+]c(-c3ccc(CC)cc3)c2)cc1.F[B-](F)(F)F [6jc64-3]

>  <answer-label>
yes (1)

$$$$
>  <compound>
Cc1cc(/C=C/c2ccc(N(C)C)cc2)cc(C)[o+]1.F[B-](F)(F)F [6jc37]

>  <answer-label>
yes (1)

$$$$
>  <compound>
Cc1ccc(-c2cc(/C=C/c3ccc(N(C)C)cc3)[o+]c(-c3ccc(C)cc3)c2)cc1.F[B-](F)(F)F [6jc51-1]

>  <answer-label>
no (0)

$$$$

###

protocol-text: Pharmacokinetic study in mice
Format: in vivo, male CD1 mice
experimental-setup: male, CD1, mouse, plasma, po, 5 mg/kg, PO 5 mg/kg, male CD1 mice; read-out: Flast (bioavailability)

>  <entry-smiles>
CN(C)c1ccc(/C=C/c2cc(-c3ccc(Br)cc3)cc(-c3ccc(Br)cc3)[o+]2)cc1

>  <bioavailability [%]>
1.9

$$$$
